// data source = ChEMBL document CHEMBL5113380

Experiment: Inhibition of palmitate-induced lipid accumulation in human HepG2 cells relative to control; note: test concentration or dose not given here
Type: functional
Test Readout: inhibition (INH) (%)

Smiles Input	Scale Unit	Value Reported
Cc1cccc2c1NCCN2	%	30
Cc1cccc2c1NC(=O)CN2	%	50
Cc1ccc2c(c1)N[C@H](C)C(=O)N2	%	50
Cc1ccc2c(c1)N[C@@H](C)C(=O)N2	%	50
CN1CCNc2ccccc21	%	30
Cc1cccc2c1NC[C@H](C)N2	%	30
Cc1ccc2ncc(C)nc2c1	%	20
Cc1cnc2ccccc2n1	%	20

----------
Listed compounds paired with reported IC50
Assay: Inhibition of ALR2 (unknown origin)
Parameters: species or system Homo sapiens
Test Readout: IC50 (µM)

Smiles Input	Test Readout	Scale Unit	Value Reported
COc1ccc2nc(/C=C/c3ccc(O)cc3)c(=O)n(CC(=O)O)c2c1	IC50	µM	0.059
O=C(Cn1c(=O)c(/C=C/c2ccc(O)c(O)c2)nc2ccccc21)NS(=O)(=O)C(F)(F)F	IC50	µM	0.1
O=C(O)Cn1c(=O)c(Oc2ccc(Br)cc2)nc2cc(Br)ccc21	IC50	µM	0.0163

----------
Listed compounds paired with reported log10 of MIC
System: Pseudomonas aeruginosa
Assay: Antibacterial activity against Pseudomonas aeruginosa
Assay type: functional
Test Readout: log10 of MIC (log10 of the value in µg/mL)

Smiles Input	Tested System	log10 of MIC
O=C1CC(c2ccccc2)=NN1c1nc2ccccc2[nH]c1=O	Pseudomonas aeruginosa	1.50
COc1ccc2ncc(=O)n(CCN3CCC(NCc4ccc5c(n4)NC(=O)CO5)CC3)c2c1	Pseudomonas aeruginosa	0.00
N#Cc1ccc2c(c1)N(CCN1CCC(NCc3ccc4c(n3)NC(=O)CO4)CC1)C(=O)CO2	Pseudomonas aeruginosa	0.30
CCOC(=O)c1nc2ccc(C)cc2[nH]c1=O	Pseudomonas aeruginosa	2.40
CCc1nc2ccc(C(F)(F)F)cc2[nH]c1=O	Pseudomonas aeruginosa	2.10
CCc1nc2cc(C(F)(F)F)ccc2[nH]c1=O	Pseudomonas aeruginosa	1.80
CCOC(=O)c1nc2cc(F)c(N3CCOCC3)cc2[nH]c1=O	Pseudomonas aeruginosa	2.40
COc1ccc2ncc(=O)n(CCN3CCC(NCc4cc5c(cn4)OCCO5)CC3)c2c1	Pseudomonas aeruginosa	0.60

----------
Test: Displacement of [3H]glycine from AMPA receptor (unknown origin)
Assay type: protein-complex assay, Homo sapiens
pIC50: −log10 of the molar value.
Test Readout: pIC50

Molecule	Value Reported
CCOC(=O)CN(C)Cc1c(CC)c([N+](=O)[O-])cc2nc(O)c(O)nc12	< 5.00
CC(C)CCN1CCc2c(Br)cc3nc(O)c(O)nc3c2C1	< 5.00
CCC(C)CN1CCc2c(Br)cc3nc(O)c(O)nc3c2C1 (centres undefined)	< 4.00
CCC(C)N1CCc2c(Br)cc3nc(O)c(O)nc3c2C1 (centres undefined)	< 5.00

----------
Target: Glutamate receptor ionotropic AMPA (Homo sapiens, UniProt P42261+P42262+P42263+P48058)
Test: Displacement of [3H]AMPA from AMPA receptor (unknown origin)
Format: protein-complex assay
pIC50: −log10 of the molar value.
Classify by measured pIC50: label 1 if it is equal to or exceeds 6, label 0 if it is smaller.

Molecule	Assigned Class
CN1CCc2c(c([N+](=O)[O-])cc3[nH]c(=O)c(=O)[nH]c23)C1	label 1
CCOC(=O)CN(C)Cc1c(CC)c([N+](=O)[O-])cc2nc(O)c(O)nc12	label 0
Oc1nc2cc(Cl)c(Cl)cc2n2ccnc12	label 0
N[C@@H](Cc1ccc2[nH]c(=O)c(=O)[nH]c2c1)C(=O)O	label 0
N[C@@H](CCc1ccc2[nH]c(=O)c(=O)[nH]c2c1)C(=O)O	label 0
CC(C)CCN1CCc2c(Br)cc3nc(O)c(O)nc3c2C1	label 0
CN1CCc2c([N+](=O)[O-])cc3[nH]c(=O)c(=O)[nH]c3c2C1	label 1
CCC(C)CN1CCc2c(Br)cc3nc(O)c(O)nc3c2C1 (stereo not given)	label 0
CCc1c(Br)cc2nc(O)c(O)nc2c1CN(C)CC(=O)O	label 0
Oc1nc2cc(Cl)c(Cl)cc2n2cnnc12	label 0
Cc1cc2[nH]c(=O)c(=O)[nH]c2cc1C=O	label 0
CCc1c([N+](=O)[O-])cc2nc(O)c(O)nc2c1CN(C)CC(=O)O	label 1
O=c1[nH]c2cc(CO)c(CO)cc2[nH]c1=O	label 0
